fold change of affinity by entry:
# target-under-test: T1, Human CD137 ECD (human)
# T1 construct: entry includes C-terminal His-tag and biotin acceptor peptide; also called human CD137 extracellular domain; 4-1BB
# T1 sequence (chain, as listed by the source limits assumed): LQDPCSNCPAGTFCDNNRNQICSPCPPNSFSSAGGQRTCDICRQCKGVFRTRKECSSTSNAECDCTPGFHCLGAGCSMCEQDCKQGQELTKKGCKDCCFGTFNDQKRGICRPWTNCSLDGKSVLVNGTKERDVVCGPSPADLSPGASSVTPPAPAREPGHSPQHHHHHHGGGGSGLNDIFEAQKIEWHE
# experiment-description: Biacore SPR, vs parent H183/L072
Give the number; fold is assumed, so skip it.

Check out these entries, answers already filled in.
[
  {
    "binder": "H183/L072 VL P56V (antibody, name in Kabat numbering, V domains shown, Dual-Ig) VH: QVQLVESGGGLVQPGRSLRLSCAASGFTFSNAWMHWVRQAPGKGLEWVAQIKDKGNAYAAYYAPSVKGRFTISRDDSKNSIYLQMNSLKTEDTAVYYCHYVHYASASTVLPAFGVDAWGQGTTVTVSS VL: DIVMTQSPLSLPVTPGEPASISCQASQELVHMNRNTYLHWYQQKPGQAPRLLIYKVSNRFVGVPDRFSGSGSGTDFTLKISRVEAEDVGVYYCAQGTSVPFTFGQGTKLEIK",
    "numeric-readout": 0
  },
  {
    "binder": "H183/L072 VL T97K (antibody, name in Kabat numbering, V domains shown, Dual-Ig) VH: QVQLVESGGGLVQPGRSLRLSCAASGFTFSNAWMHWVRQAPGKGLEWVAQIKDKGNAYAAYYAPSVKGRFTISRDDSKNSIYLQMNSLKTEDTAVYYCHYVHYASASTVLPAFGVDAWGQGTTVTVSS VL: DIVMTQSPLSLPVTPGEPASISCQASQELVHMNRNTYLHWYQQKPGQAPRLLIYKVSNRFPGVPDRFSGSGSGTDFTLKISRVEAEDVGVYYCAQGTSVPFKFGQGTKLEIK",
    "numeric-readout": 1.1
  }
]

Shift focus to the following entry.
Can you look up the measured fold change of affinity of H183/L072 VL V94Q (antibody, name in Kabat numbering, V domains shown, Dual-Ig) VH: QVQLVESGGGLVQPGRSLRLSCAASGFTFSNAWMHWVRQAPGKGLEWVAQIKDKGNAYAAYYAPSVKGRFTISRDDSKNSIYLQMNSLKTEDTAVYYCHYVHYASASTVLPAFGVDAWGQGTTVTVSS VL: DIVMTQSPLSLPVTPGEPASISCQASQELVHMNRNTYLHWYQQKPGQAPRLLIYKVSNRFPGVPDRFSGSGSGTDFTLKISRVEAEDVGVYYCAQGTSQPFTFGQGTKLEIK for me?
0.8
